Item-by-item account of pest or weed control at 500 g/ha
System: ryegrass, Italian
test_summary: Test A postemergence
Assay type: in vivo, Lolium multiflorum
condition_notes: Lolium multiflorum, post-emergence, 240 h, 500 g ai/ha, postemergence, 10 days, visual injury, 0 to 100 scale (0 no effect, 100 complete control); read-out: Plant response rating, Ryegrass, Italian
Report as a plain number; the unit % is understood.

# example entries with known answers
# smiles_input, endpoint_name, quantitative_result
data = [
    ("CCc1ncn(-c2ccc(OC)c(C(=O)N3C[C@H](C)Oc4c(Cl)cccc43)c2)n1", "pest or weed control at 500 g/ha", 100),
    ("COc1ccc(-n2cnc(C(C)C)n2)cc1C(=O)N1C[C@H](C)Oc2c(Cl)cccc21", "pest or weed control at 500 g/ha", 100),
    ("Cc1cccc2c1O[C@@H](C)CN2C(=O)c1cccc(-n2cnn(C)c2=O)c1", "pest or weed control at 500 g/ha", 60),
]

Now look at this entry.
Exercise: Fill blank: measured pest or weed control at 500 g/ha of the compound CCc1ccc(-n2cnc(C(C)C)n2)cc1C(=O)N1C[C@H](C)Oc2c(Cl)cccc21 is ____.
Solution: 90
